measuredTarget: human B1R (Homo sapiens, UniProt P46663)
Construct: expressed in transfected cells; host or cells: CHO K1 cells (Chinese hamster ovary), stably transfected
Sequence (P46663 whole entry): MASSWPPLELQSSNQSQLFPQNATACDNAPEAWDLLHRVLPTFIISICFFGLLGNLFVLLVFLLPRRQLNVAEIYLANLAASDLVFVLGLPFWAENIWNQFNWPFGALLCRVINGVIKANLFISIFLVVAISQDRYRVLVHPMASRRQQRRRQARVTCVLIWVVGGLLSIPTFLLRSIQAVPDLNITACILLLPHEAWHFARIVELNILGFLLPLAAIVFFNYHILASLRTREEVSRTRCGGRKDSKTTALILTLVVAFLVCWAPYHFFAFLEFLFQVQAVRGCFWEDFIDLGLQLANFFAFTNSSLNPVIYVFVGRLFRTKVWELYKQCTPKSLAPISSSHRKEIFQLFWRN
protocolDescription: FLIPR Ca2+ functional assay, B1R antagonism, human B1R in CHO K1 cells
Assay type: cell-based
particulars: test substance 10 μM; hB1R CHO K1 cells; agonist Lys-Des-Arg9 bradykinin at EC80; % of maximum achievable inhibition
Provide the reported inhibition at 10 µM of each item.
Answers are plain numbers, in %.

Cc1ccc(S(=O)(=O)N2CCn3cccc3C2CC(=O)NC2CCc3cc(CN(C)C)ccc3C2)cc1Cl (stereo not shown) [Example 115]	99.8
Cc1ccc(S(=O)(=O)N2CCn3cccc3C2CC(=O)NC2CCCc3cc(CN4CCN(C)CC4)ccc32)cc1 (stereo not shown) [Example 78]	99.8

// for each molecule in input: emit inhibition at 10 µM
1. COc1cc(C)c(S(=O)(=O)N2CCn3cccc3C2COCC(=O)N2CCC(CN3CCN(C)CC3)C2)c(C)c1 (stereo not shown) [Example 37]
2. CNCc1ccc2c(c1)CCCC2NC(=O)CC1c2cccn2CCN1S(=O)(=O)c1cccc(C(F)(F)F)c1 (stereo not shown) [Example 135]
3. CN(CCC1CCN(c2ccncc2)CC1)C(=O)COCC1c2cccn2CCN1S(=O)(=O)c1ccccc1C(F)(F)F (stereo not shown) [Example 12]
4. O=C(COCC1c2cccn2CCN1S(=O)(=O)c1ccccc1C(F)(F)F)N1CCC2(CC1)CCN(c1ccncc1)C2 (stereo not shown) [Example 21]
5. CN1CCN(Cc2ccc3c(c2)CCC(NC(=O)CC2c4cccn4CCN2S(=O)(=O)c2cccc(C(F)(F)F)c2)C3)CC1 (stereo not shown) [Example 68]
6. Cc1ccc(S(=O)(=O)N2CCn3cccc3C2CC(=O)NC2CCc3cc(CN4C5CCCC4CC5)ccc3C2)cc1Cl (stereo not shown) [Example 71]
7. O=C(CC1c2cccn2CCN1S(=O)(=O)c1cccc(C(F)(F)F)c1)NC1CCc2cc(CN3CCCCC3)ccc2C1 (stereo not shown) [Example 30]

Result block:
1: 97.8; 2: 99.6; 3: 99.5; 4: 100; 5: 99.7; 6: 99.8; 7: 99.8

* * *

measuredTarget: B1R of the rat (Rattus norvegicus, UniProt P97583)
Construct: expressed in transfected cells; host or cells: CHO K1 cells (Chinese hamster ovary), stably transfected
Sequence (P97583 whole entry): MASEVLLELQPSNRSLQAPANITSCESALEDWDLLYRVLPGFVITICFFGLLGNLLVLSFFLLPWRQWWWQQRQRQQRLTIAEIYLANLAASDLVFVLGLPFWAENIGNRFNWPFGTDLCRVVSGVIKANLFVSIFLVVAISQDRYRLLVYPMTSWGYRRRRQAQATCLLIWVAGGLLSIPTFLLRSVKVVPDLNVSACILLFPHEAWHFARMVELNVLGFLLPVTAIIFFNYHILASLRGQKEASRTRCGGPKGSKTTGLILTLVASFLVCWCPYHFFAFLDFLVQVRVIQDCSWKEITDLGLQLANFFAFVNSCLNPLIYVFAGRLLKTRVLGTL
protocolDescription: FLIPR Ca2+ functional assay, B1R antagonism, rat B1R in CHO K1 cells
Assay type: cell-based
particulars: test substance 10 μM; rB1R CHO K1 cells; agonist Des-Arg9 bradykinin at EC80; % of maximum achievable inhibition
Please enter y where inhibition at 10 µM is greater than or equal to 70%, and n where it is lower.

Previously resolved entries follow.
COc1cc(C)c(S(=O)(=O)N2CCn3cccc3C2COCC(=O)NC2CCN(c3ccncc3)CC2)c(C)c1 (stereo not shown)	y
O=C(CC1c2cccn2CCN1S(=O)(=O)c1ccc(C(F)(F)F)cc1Cl)N1CCCCC1 (stereo not shown)	n
CCC(C)NCc1ccc2c(c1)CCC(NC(=O)CC1c3cccn3CCN1S(=O)(=O)c1ccc(C)c(Cl)c1)C2 (stereo not shown)	y
Cc1cccc(Cl)c1S(=O)(=O)N1CCn2cccc2C1CC(=O)N1CCC(N2CCCCC2)CC1 (stereo not shown)	n

Query block: Could you verify whether the entry Cc1cc(S(=O)(=O)N2CCn3cccc3C2CC(=O)NC2CCc3cc(CN4CCCCC4)ccc3C2)c(C)cc1Cl (stereo not shown) shows inhibition at 10 µM of no less than 70%?
Result block: y

Query block: Quick check: does Cc1ccc(S(=O)(=O)N2CCn3cccc3C2CC(=O)NC2CCCc3cc(CNCc4ccccc4)ccc32)cc1Cl (stereo not shown) have inhibition at 10 µM greater than or equal to 70%?
Result block: y

* * *

measuredTarget: B1R of the rat (Rattus norvegicus, UniProt P97583)
Construct: expressed in transfected cells; host or cells: CHO K1 cells (Chinese hamster ovary), stably transfected
protocolDescription: FLIPR Ca2+ functional assay, B1R antagonism, rat B1R in CHO K1 cells
Format: cell-based
particulars: test substance 10 μM; rB1R CHO K1 cells; agonist Des-Arg9 bradykinin at EC80; % of maximum achievable inhibition
valueKind: inhibition at 10 µM (%)
One number for each entry, in %.

Record inhibition at 10 µM for all entries; do not skip any.
1. Cc1cccc(Cl)c1S(=O)(=O)N1CCn2cccc2C1CC(=O)N1CCCCC1Cc1ccncc1 (stereo not shown) [Example 251]
2. COc1cc(C)c(S(=O)(=O)N2CCn3cccc3C2CC(=O)N2CCCCC2Cc2ccccn2)c(C)c1 (stereo not shown) [Example 244]
3. CC(C)(C)NCc1ccc2c(c1)CCCC2NC(=O)CC1c2cccn2CCN1S(=O)(=O)c1cccc(C(F)(F)F)c1 (stereo not shown) [Example 82]
4. O=C(CC1c2cccn2CCN1S(=O)(=O)c1ccccc1)N1CCC(O)(c2cccnc2)CC1 (stereo not shown) [Example 167]
5. Cc1ccc(S(=O)(=O)N2CCn3cccc3C2CC(=O)NC2CCCc3cc(CN(C)C(C)(C)C)ccc32)cc1Cl (stereo not shown) [Example 76]
6. COc1cc(C)c(S(=O)(=O)N2CCn3cccc3C2COCC(=O)N2CCC3(CC2)CCN(c2ccncc2)CC3)c(C)c1 (stereo not shown) [Example 10]
7. COc1cc(C)c(S(=O)(=O)N2CCn3cccc3C2CC(=O)N2CCCN(c3ncccc3C#N)CC2)c(C)c1 (stereo not shown) [Example 150]

Result block:
1: -37.1; 2: -37.6; 3: 101; 4: 0.145; 5: 101; 6: 103; 7: 50.3

* * *

measuredTarget: B1R of the rat (Rattus norvegicus, UniProt P97583)
Construct: expressed in transfected cells; host or cells: CHO K1 cells (Chinese hamster ovary), stably transfected
protocolDescription: FLIPR Ca2+ functional assay, B1R antagonism, rat B1R in CHO K1 cells
Type: cell-based
particulars: test substance 10 μM; rB1R CHO K1 cells; agonist Des-Arg9 bradykinin at EC80; % of maximum achievable inhibition
valueKind: inhibition at 10 µM (%)
Answers are plain numbers, in %.

Example entries begin here.
Cc1ccc(S(=O)(=O)N2CCn3cccc3C2CC(=O)NC2CCc3cc(CN4CCCc5ccccc54)ccc3C2)cc1 (stereo not drawn)	99.3
Cc1ccc(S(=O)(=O)N2CCn3cccc3C2CC(=O)NC2CCc3cc(CN4CCOCC4)ccc3C2)cc1 (stereo not drawn)	102
COc1cc(C)c(S(=O)(=O)N2CCn3cccc3C2CC(=O)N2CCN(Cc3ccccc3F)CC2)c(C)c1 (stereo not drawn)	29.4
CN1CCN(CC(NC(=O)CC2c3cccn3CCN2S(=O)(=O)c2ccccc2)c2ccccc2)CC1 (stereo not drawn)	68.4
COc1cc(C)c(S(=O)(=O)N2CCn3cccc3C2COCC(=O)N2CCC(N3CC4CC3CN4C)CC2)c(C)c1 (stereo not drawn)	94.9
COc1cc(C)c(S(=O)(=O)N2CCn3cccc3C2CC(=O)N2CCN(CCC#N)CC2)c(C)c1 (stereo not drawn)	-27.4

Kindly give each listed record's inhibition at 10 µM.
1. Cc1cccc(Cl)c1S(=O)(=O)N1CCn2cccc2C1CC(=O)NC1CCN(Cc2ccccc2)C1 (stereo not drawn)
2. COc1cc(C)c(S(=O)(=O)N2CCn3cccc3C2CC(=O)N2CCN(c3ccccc3F)CC2)c(C)c1 (stereo not drawn)
3. Cc1cccc(Cl)c1S(=O)(=O)N1CCn2cccc2C1COCC(=O)N1CCC2(CC1)CCN(c1ccncc1)C2 (stereo not drawn)

Result block:
[69.5, 70.3, 109]

I need inhibition at 10 µM for every entry listed below, if you could help.
1. Cc1ccc(CN2CCN(C(=O)CC3c4cccn4CCN3S(=O)(=O)c3ccccc3)CC2)cc1 (stereo not drawn)
2. O=C(CC1c2cccn2CCN1S(=O)(=O)c1cccc(C(F)(F)F)c1)N1CCN(c2ccccn2)CC1 (stereo not drawn)
3. O=C(CC1c2cccn2CCN1S(=O)(=O)c1ccccc1)NC1CCN(Cc2ccccc2)C1 (stereo not drawn)
4. COc1ccc2cc(S(=O)(=O)N3CCn4cccc4C3CC(=O)NC3CCc4cc(CN5CCCC5)ccc4C3)ccc2c1 (stereo not drawn)
5. COc1cc(C)c(S(=O)(=O)N2CCn3cccc3C2COCC(=O)N(C)C2CCN(c3ccncc3)CC2)c(C)c1 (stereo not drawn)
6. Cc1ccc(S(=O)(=O)N2CCn3cccc3C2CC(=O)NC2CCc3cc(CN(C)C)ccc3C2)cc1Cl (stereo not drawn)

Result block:
2.94
20.4
24.4
101
105
102

* * *

Exercise: state measured inhibition at 10 µM for each of the molecules provided.
measuredTarget: human B1R (Homo sapiens, UniProt P46663)
Construct: expressed in transfected cells; host or cells: CHO K1 cells (Chinese hamster ovary), stably transfected
protocolDescription: FLIPR Ca2+ functional assay, B1R antagonism, human B1R in CHO K1 cells
Assay type: cell-based
particulars: test substance 10 μM; hB1R CHO K1 cells; agonist Lys-Des-Arg9 bradykinin at EC80; % of maximum achievable inhibition

Before answering, review these 10 worked examples.
Cc1ccc(S(=O)(=O)N2CCn3cccc3C2CC(=O)NC2CCc3cc(CN4CCCc5ccccc54)ccc3C2)cc1Cl (centres unmarked)	96%
COc1cc(C)c(S(=O)(=O)N2CCn3cccc3C2COCC(=O)NC2CCN(c3ccncc3)CC2)c(C)c1 (centres unmarked)	97.5%
COc1ccc2cc(S(=O)(=O)N3CCn4cccc4C3CC(=O)NC3CCCc4cc(CN5CCCCC5)ccc43)ccc2c1 (centres unmarked)	99.8%
COc1cc(C)c(S(=O)(=O)N2CCn3cccc3C2CC(=O)NC2CCNCC2(C)C)c(C)c1 (centres unmarked)	97.4%
CN1CCN(Cc2ccc3c(c2)CCCC3NC(=O)CC2c3cccn3CCN2S(=O)(=O)c2cccc(C(F)(F)F)c2)CC1 (centres unmarked)	99.8%
Cc1cccc(Cl)c1S(=O)(=O)N1CCn2cccc2C1COCC(=O)N(C)CCC1CCN(c2ccncc2)CC1 (centres unmarked)	99.9%
COc1cc(C)c(S(=O)(=O)N2CCn3cccc3C2COCC(=O)N(C)CCC2CCN(c3ccncc3)CC2)c(C)c1 (centres unmarked)	99.9%
Cc1ccc(S(=O)(=O)N2CCn3cccc3C2CC(=O)NC2CCc3cc(CN4CCCC4)ccc3C2)cc1 (centres unmarked)	100%
Cc1ccc(S(=O)(=O)N2CCn3cccc3C2CC(=O)NC2CCc3cc(CN(C)C(C)(C)C)ccc3C2)cc1 (centres unmarked)	99.8%
COc1cc(C)c(S(=O)(=O)N2CCn3cccc3C2CC(=O)N2CCC3(CC2)CCN(c2ccncc2)C3)c(C)c1 (centres unmarked)	99.9%

Please state inhibition at 10 µM for every molecule in the list that follows.
1. Cc1ccc(S(=O)(=O)N2CCn3cccc3C2CC(=O)NC2CCc3cc(CN4CCOCC4)ccc3C2)cc1 (centres unmarked)
2. COc1ccc2cc(S(=O)(=O)N3CCn4cccc4C3CC(=O)NC3CCCc4cc(CN5CCN(C)CC5)ccc43)ccc2c1 (centres unmarked)
3. Cc1ccc(S(=O)(=O)N2CCn3cccc3C2CC(=O)NC2CCCc3cc(CN4CCOCC4)ccc32)cc1Cl (centres unmarked)
4. Cc1ccc(S(=O)(=O)N2CCn3cccc3C2CC(=O)NC2CCc3cc(CN4C5CCCC4CC5)ccc3C2)cc1 (centres unmarked)

Result block:
99.4%
100%
98.5%
99.2%
